Measured Emax Inhibition, % accompanies every entry in the list below.
Molecular target: T1, CEACAM5 (CD66e) on tumour cells (human, UniProt P06731 35-685, glycosylated (natural, as on tumour cells))
T1 construct: whole, on cells; One molecule for CEACAM5 on all three cell lines; the cell line is named under assay; also called natural CEACAM5 antigen; Lovo cells
T1 sequence (looked up): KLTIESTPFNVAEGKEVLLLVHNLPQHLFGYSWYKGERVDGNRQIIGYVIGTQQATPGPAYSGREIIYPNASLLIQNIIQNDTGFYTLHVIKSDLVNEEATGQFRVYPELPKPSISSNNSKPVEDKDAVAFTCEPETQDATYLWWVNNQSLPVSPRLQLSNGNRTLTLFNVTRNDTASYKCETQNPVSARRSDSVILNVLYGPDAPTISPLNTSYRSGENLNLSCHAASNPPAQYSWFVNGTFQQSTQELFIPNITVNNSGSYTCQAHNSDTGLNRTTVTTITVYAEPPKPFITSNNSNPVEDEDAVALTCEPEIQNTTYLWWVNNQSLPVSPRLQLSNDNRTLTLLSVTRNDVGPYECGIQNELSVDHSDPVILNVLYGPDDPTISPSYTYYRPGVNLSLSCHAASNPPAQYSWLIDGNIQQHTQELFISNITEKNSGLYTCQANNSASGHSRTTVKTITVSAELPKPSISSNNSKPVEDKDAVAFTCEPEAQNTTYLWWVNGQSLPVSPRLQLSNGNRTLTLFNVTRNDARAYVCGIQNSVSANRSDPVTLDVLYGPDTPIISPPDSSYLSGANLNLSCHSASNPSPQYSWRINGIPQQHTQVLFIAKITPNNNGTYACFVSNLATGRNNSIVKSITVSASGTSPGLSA
Experiment: competition by flow cytometry on KATO3 cells; competitor mouse M19 (m2F4) at 1 µg/ml, detected with anti-mouse IgG Fc-APC
API: value field is a number in %; no unit string.

Reference set, count: 2
{"BINDER": "Humanized antibody hAb-017 (antibody, V domains shown, also called hM19-15) VH: EVQLVESGGGLVQPGGSLRLSCAASGFTFTDYYMDWVRQAPGKALEWVGFTRNKVNGDTTEYAASVKGRFTISRDDSKNSLYLQMNSLKTEDTAVYYCARDKGIAYYFDYWGQGTLVTVSS VL: EIVLTQSPATLSASPGERATLSCRASSSVSYIHWYQQKPGQSPRPLIYGASNLASGVPARFSGSGSGTDFTLTISSLEPEDAAVYYCQQWSSNLSTFGGGTKVEIK", "Emax Inhibition, % / %": 73.9}
{"BINDER": "Humanized antibody hAb-006 (antibody, V domains shown, also called hM19-4) VH: EVQLVESGGGLVQPGGSLRLSCAASGFTFTDYYMNWVRQAPGKGLEWLGFIRNKVNGDTTEYSASVKGRFTISRDISKNSLYLQMNSLKTEDTAVYYCARDKGIAYYFDYWGQGTLVTVSS VL: DIVLSQSPGTLSLSPGERATLSCRASSSVSYIHWYQQKPGQAPRPWIHGTSNLASGIPDRFSGSGSGTDYTLTISRLEPEDFAVYYCQQWSSNLSTFGGGTKVEIK", "Emax Inhibition, % / %": 47.2}

As a next step, examine the binder that follows.
Kindly indicate its recorded Emax Inhibition, %. Item: Humanized antibody hAb-016 (antibody, V domains shown, also called hM19-14) VH: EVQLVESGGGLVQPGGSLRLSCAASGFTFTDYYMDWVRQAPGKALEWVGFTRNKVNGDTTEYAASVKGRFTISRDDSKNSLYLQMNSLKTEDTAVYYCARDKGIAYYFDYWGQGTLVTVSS VL: EIVLTQSPGTLSASPGERATLSCRASSSVSYIHWYQQKPGQSPRPLIYGTSNLASGVPDRFSGSGSGTDFTLTISRLEPEDAAVYYCQQWSSNLSTFGGGTKVEIK
73.2
